molecular target: acetylcholinesterase (AChE), BTU field population; construct: native enzyme in homogenate of five pooled fly heads; mixed genotypes, G262A in a small part of the flies, other mutations not screened; test: Ellman assay, […] nm, head homogenate; conditions: 0.4 mM acetylthiocholine, pH 7.8 phosphate, 25 °C, 10 min preincubation; covalent

{"Compound": "CCOP(=O)(OCC)Oc1cc(C)nc(C(C)C)n1 [diazoxon]", "Unit Tag": "nM", "IC50": 6.1}

----------
target: acetylcholinesterase (AChE), Labelle field population; construct: native enzyme in homogenate of five pooled fly heads; assay: Ellman assay, […] nm, head homogenate; conditions: 0.4 mM acetylthiocholine, pH 7.8 phosphate, 25 °C, 10 min preincubation; covalent
Observable: IC50 (nM)

{"Structure Smiles String": "CCOP(=O)(OCC)Oc1cc(C)nc(C(C)C)n1", "Assayed Target": "acetylcholinesterase (AChE), Labelle field population", "Unit Tag": "nM", "Readout Value": 9.2}

----------
molecular target: acetylcholinesterase (AChE), Ona field population; construct: native enzyme in homogenate of five pooled fly heads; mixed genotypes, G262A in a small part of the flies, other mutations not screened; test: Ellman assay, […] nm, head homogenate; conditions: 0.4 mM acetylthiocholine, pH 7.8 phosphate, 25 °C, 10 min preincubation; covalent; stated gain

{"Structure Smiles String": "CCOP(=O)(OCC)Oc1cc(C)nc(C(C)C)n1", "Assayed Target": "acetylcholinesterase (AChE), Ona field population", "IC50": "20.5 nM"}
